Exercise: state measured Cell Death for each of the compounds provided.
- System: rat hepatocytes
- Test details: EMS-induced cytotoxicity (LDH leakage/cell death) in rat hepatocyte suspensions
- Condition details: 50 mM EMS, 5 Hrs; alpha-TS 25, methyl ester 50, cholesteryl succinate 100, monomethyl/dimethyl succinate 250 μM
- Experimental: To determine if alpha-TS is a cytoprotective agent under physiological conditions, liver cells were incubated with Waymouth's medium containing approximately 1 mM extracellular Ca^2+ in the presence and absence of alpha-TS. At each time-point, rapid separation of viable from non-viable hepatocytes and medium was accomplished by the dibutyl phthalate centrifugation method. […] Lipid peroxidation was determined by measuring TBA reactants in the medium. […]
# do not omit the unit; it follows the number

See these solved cases before continuing.
Cc1c(C)c2c(c(C)c1OC(=O)CCC(=O)O)CC[C@@](C)(CCC[C@H](C)CCC[C@H](C)CCCC(C)C)O2 [alpha-TS, d-alpha-tocopheryl succinate] : 27 ± 1%
COC(=O)CCC(=O)Oc1c(C)c(C)c2c(c1C)CCC(C)(CCCC(C)CCCC(C)CCCC(C)C)O2 (stereo not drawn) [methyl ester of alpha-TS, Alpha-Tocopherol Succinate Methyl Ester] : 30 ± 1%
COC(=O)CCC(=O)O [Monomethyl Succinate, reference compound] : 61 ± 5%
CC(C)CCC[C@@H](C)[C@H]1CC[C@H]2[C@@H]3CC=C4C[C@@H](OC(=O)CCC(=O)O)CC[C@]4(C)[C@H]3CC[C@]12C [Cholesteryl Succinate] : 48 ± 4%

Now look at this entry.
Reported Cell Death, compound COC(=O)CCC(=O)OC [Dimethyl Succinate, reference compound] : ____
60 ± 1%

Source listed as patent US5336485A.
